From: PubChem BioAssay (NCI)

System: NCI-H522 lung
Experiment: NCI-60 one-dose screen, 48 h
Conditions: 10 µM unless noted
Protocol: Growth inhibition of the NCI-H522 human Non-Small Cell Lung tumor cell line is measured as a screen for anti-cancer activity. Cells are grown in 96 well plates and exposed to the test compound for 48 hours. Compounds are tested at a single concentration, which is 10^-5 M for most compounds. The reported endpoint is percent growth (GI% or GIPRCNT), where numbers from 0 - 100% represent growth inhibition, and numbers from -100% - 0 represent cell death. […]
This is part of a sample that, as a whole, favours compounds with a hit. Of some 83,000 tested, about 20% had one in any assay. Activity calls are given as the source filed them. How the source made its calls: active means growth percent below 10; inactive means the rest.
Just give me one of these, please: Yes for active, No for inactive

Solved cases (4 shown):
1. COc1cc(-c2nn(-c3cccc(NC(=O)c4ccc(N5CCOCC5)c(C(F)(F)F)c4)c3)cc2-c2ccncc2)ccc1Cl; Yes
2. C=C1CCC2C(C)(CO)C(O)CCC2(C)C1C/C=C1/C(=O)OCC1Oc1ccccc1C (stereo not given); No
3. CCN(CC)CCCC(C)Nc1c2ccc(Cl)cc2nc2cc(OC)c(OC)cc12 (stereo not given); No
4. NC(N)=N/N=C/c1ccc(-c2ccc(-c3cc(Cl)cc(Cl)c3)s2)cc1; Yes

Exercise: What was the test verdict on `O=C(Nc1ccc2c(c1)OCCO2)C(=O)c1c[nH]c2ccccc12` ?
Key: Yes

Exercise: What was the test verdict on `COc1ccc(C2=C(c3cc(OC)c(OC)c(OC)c3)C(=O)CC2)cc1` ?
Key: Yes

Exercise: What was the test verdict on `CO[C@H]1NC(=O)N(S(=O)(=O)c2ccc(Cl)cc2)[C@@H]1OC` ?
Key: No

Exercise: What was the test verdict on `CCCCCCCCCCCC(=O)NCCC[N+](C)(C)CC(=O)[O-]` ?
Key: No

Exercise: What was the test verdict on `COc1ccc(-n2c(=S)sc3c(Cl)nc(C)nc32)c(OC)c1` ?
Key: No

Exercise: What was the test verdict on `COc1ccc(-c2nc(/C=N/Nc3cc(C)nc4ccc(Br)cc34)c(C)o2)cc1` ?
Key: Yes

Exercise: What was the test verdict on `N#Cc1ccc(N2Cc3ccccc3OC3=C2C(=O)c2c(O)ccc(O)c2C3=O)cc1` ?
Key: Yes

Exercise: What was the test verdict on `COC(=O)c1cccc2c1N(C)c1c(cccc1C(=O)OC)CC2` ?
Key: No

Exercise: What was the test verdict on `OCCCCCCNc1ncnc2cc(Cl)ccc12` ?
Key: No

Exercise: What was the test verdict on `Cc1ccc2nc(Cl)cc(=O)n2c1` ?
Key: No

----------
system: SK-MEL-28 melanoma; experiment: NCI-60 one-dose screen, 48 h (100 = growth as untreated, 0 = no growth, -100 = all killed); settings: 10 µM unless noted
The panel holds about 83,000 compounds, 20% with a hit somewhere; the sample as a whole holds those more often.
experimentalEndpoint: growth (%)
One number for each entry, in %.

# example entries with known answers
1. COc1ccc(-c2cnoc2-c2ccc(OC)cc2O)cc1; 45
2. COc1ccc(-n2c(=O)sc3c(Cl)nc(C)nc32)c(OC)c1; 83.3
3. C=C1CCC2C3(C)COC(c4ccccc4)OC3CCC2(C)C1/C=C/C1=CCOC1=O (stereo not given); 98.1
4. CC(=O)Nc1nc(N)nc(NC(C)=O)c1N=O; 115
5. Clc1ccc(-c2nc3ccccc3s2)cc1Cl; 106

Would you be so kind as to report growth for each listed record?
1. COc1ccc(-c2ccc(-c3ccc(-c4ccc(C(=N)N)cc4)s3)s2)cc1OC
2. N#Cc1c(Nc2ccccc2)nc2n(c1=O)-c1ccccc1Sc1ccccc1-2
3. O=C(/C=C/c1c[nH]c2ccccc12)c1ccc(O)c(CN2CCN(c3ccc(F)cc3)CC2)c1
4. COc1ccc(-c2cc(-c3ccccc3)nc(SCCCC(=O)NO)n2)cc1OC
5. COc1cc(NC(N)=NCCC(C)(C)c2ccc(C(F)(F)F)cc2)ncc1C#N
6. O=C1/C(=C/c2ccc(Cl)cc2)CN(C(=O)CCN2CCC(=NO)CC2)C/C1=C\c1ccc(Cl)cc1
7. O=C1/C(=C/c2ccccc2)CN(C(=O)CCN2CCC(=NO)CC2)C/C1=C\c1ccccc1
8. O=C(/C=C/c1ccccc1)c1cccc(O)c1

Key:
1. 93
2. 83.8
3. 107
4. 21.5
5. -55.6
6. -89.7
7. -27.4
8. 104

Would you be so kind as to report growth for each listed record?
1. CN(CCCCCl)P(=O)(OCc1ccc([N+](=O)[O-])o1)C(F)(F)C[C@H](NC(=O)CNC(=O)c1ccc(N=[N+]=[N-])cc1)C(=O)NCCc1ccc(O)cc1 (stereo not given in full)
2. COc1ccc(C2C=C(c3ccc(Cl)cc3)N=C3SC=C(C)N32)c(Br)c1 (stereo not given)

Key:
1: 63.9; 2: 38.4
